- TEST_TARGET: hSCN3A (Homo sapiens, UniProt Q9NY46)
- Construct: expressed in transfected cells
- Sequence (Q9NY46 whole entry): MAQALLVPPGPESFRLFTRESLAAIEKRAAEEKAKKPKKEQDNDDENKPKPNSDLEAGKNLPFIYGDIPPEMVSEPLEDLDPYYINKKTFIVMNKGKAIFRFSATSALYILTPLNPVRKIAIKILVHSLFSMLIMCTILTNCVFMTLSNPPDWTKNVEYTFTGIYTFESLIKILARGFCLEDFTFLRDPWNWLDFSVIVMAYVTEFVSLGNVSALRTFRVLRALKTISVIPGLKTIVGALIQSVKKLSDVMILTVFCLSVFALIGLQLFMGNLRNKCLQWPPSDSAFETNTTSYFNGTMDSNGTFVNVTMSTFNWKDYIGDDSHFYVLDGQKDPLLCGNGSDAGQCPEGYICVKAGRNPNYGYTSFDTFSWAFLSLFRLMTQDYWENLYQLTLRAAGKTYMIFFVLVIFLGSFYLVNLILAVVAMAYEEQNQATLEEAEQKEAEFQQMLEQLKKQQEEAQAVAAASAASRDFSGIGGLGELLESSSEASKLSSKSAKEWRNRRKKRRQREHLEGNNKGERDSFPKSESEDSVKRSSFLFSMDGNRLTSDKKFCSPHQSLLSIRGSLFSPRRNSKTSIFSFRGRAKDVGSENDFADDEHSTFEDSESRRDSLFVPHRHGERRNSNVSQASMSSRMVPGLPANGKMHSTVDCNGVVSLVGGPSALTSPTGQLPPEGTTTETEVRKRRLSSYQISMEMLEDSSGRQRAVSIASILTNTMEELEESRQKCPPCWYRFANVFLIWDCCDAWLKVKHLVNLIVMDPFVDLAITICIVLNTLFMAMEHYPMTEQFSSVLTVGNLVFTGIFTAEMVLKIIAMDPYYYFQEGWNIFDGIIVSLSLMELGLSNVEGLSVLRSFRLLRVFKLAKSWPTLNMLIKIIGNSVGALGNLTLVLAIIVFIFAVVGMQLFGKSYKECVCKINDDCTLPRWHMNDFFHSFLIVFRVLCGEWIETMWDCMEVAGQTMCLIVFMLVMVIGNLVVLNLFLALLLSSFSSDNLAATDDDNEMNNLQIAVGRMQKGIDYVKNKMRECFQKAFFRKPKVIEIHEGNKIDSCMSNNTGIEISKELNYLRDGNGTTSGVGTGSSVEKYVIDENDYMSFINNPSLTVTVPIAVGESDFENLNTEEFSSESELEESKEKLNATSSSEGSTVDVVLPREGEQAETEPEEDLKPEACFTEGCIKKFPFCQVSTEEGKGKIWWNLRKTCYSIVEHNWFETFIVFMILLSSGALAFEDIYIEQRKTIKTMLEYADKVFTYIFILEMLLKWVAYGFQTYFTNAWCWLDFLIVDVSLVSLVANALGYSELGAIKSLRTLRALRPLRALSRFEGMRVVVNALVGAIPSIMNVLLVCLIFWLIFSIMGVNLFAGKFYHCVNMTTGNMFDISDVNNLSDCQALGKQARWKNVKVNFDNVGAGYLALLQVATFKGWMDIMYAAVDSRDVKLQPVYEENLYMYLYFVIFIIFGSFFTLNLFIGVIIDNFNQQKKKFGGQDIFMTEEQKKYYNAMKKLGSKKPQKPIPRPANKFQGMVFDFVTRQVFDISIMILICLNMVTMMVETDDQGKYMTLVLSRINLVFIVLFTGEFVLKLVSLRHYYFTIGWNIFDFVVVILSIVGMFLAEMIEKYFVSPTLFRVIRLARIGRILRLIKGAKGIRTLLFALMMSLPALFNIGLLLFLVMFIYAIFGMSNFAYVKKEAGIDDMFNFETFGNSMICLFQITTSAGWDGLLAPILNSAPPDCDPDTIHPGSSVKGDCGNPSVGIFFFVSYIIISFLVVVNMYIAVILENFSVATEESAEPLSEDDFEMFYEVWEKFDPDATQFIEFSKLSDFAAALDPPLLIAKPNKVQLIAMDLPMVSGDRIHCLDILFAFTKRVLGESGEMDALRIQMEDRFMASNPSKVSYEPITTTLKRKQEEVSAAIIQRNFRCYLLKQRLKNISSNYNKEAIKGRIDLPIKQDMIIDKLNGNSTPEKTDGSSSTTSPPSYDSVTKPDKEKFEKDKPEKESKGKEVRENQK
- EXPERIMENTAL_DETAILS: SCN3A inhibitory activity in HEK cells stably expressing hSCN3A (whole-cell patch clamp / radiotracer efflux HTS)
- Type: cell-based
- EXPERIMENTAL_CONDITIONS: HEK cells stably transfected with hSCN3A; read-out: SCN3A Inhibitory Activity
pIC50: −log10 of the molar value.
Please provide measured pIC50 for the entries that follow.

O=S(=O)(NCC(c1ccccc1)c1ccccc1)c1ccc(S(=O)(=O)Nc2nccs2)cc1 [Compound 24] = 6.30 to 7.00
CC(C)(C)c1ccc(NCCNS(=O)(=O)c2ccc(S(=O)(=O)Nc3nccs3)cc2)cc1 [Compound 16] = > 7.00

For the 5 compounds below, give their pIC50 values.
1. CC(C)(C)c1ccc(OC2(CNS(=O)(=O)c3ccc(S(=O)(=O)Nc4nccs4)cc3)CCCC2)cc1 [Compound 38]
2. O=S(=O)(NCCOc1ccccc1Cl)Nc1ccc(S(=O)(=O)Nc2nccs2)cc1 [Compound 43]
3. O=S(=O)(Nc1ncc(Cl)s1)c1ccc(S(=O)(=O)N2CC(Oc3ncc(C(F)(F)F)cc3Cl)C2)cc1 [Compound 26]
4. CN(CCOc1ccc(C(C)(C)C)cc1)S(=O)(=O)c1ccc(S(=O)(=O)Nc2nccs2)cc1 [Compound 35]
5. O=S(=O)(NCCc1ccc(Oc2ccccc2)cc1)Nc1ccc(S(=O)(=O)Nc2nccs2)cc1 [Compound 5]

[out]
6.30 to 7.00
6.00 to 6.30
6.30 to 7.00
6.30 to 7.00
> 7.00

For the 3 compounds below, give their pIC50 values.
1. CN(CCNS(=O)(=O)c1ccc(S(=O)(=O)Nc2nccs2)cc1)c1ccc(Cl)cc1 [Compound 13]
2. O=S(=O)(Nc1ccc(S(=O)(=O)Nc2nccs2)cc1)N[C@@H]1C[C@H]1c1ccccc1 (relative stereo) [Compound 4]
3. O=S(=O)(NCC(c1ccccc1)c1ccccc1)Nc1ccc(S(=O)(=O)Nc2nccs2)cn1 [Compound 45]

[out]
1: > 7.00; 2: > 7.00; 3: < 6.00

For the 6 compounds below, give their pIC50 values.
1. O=S(=O)(NCC1(Oc2ccc(Cl)cc2)CCC1)c1ccc(S(=O)(=O)Nc2nccs2)cc1 [Compound 17]
2. CC(C)(C)CCNS(=O)(=O)c1ccc(S(=O)(=O)Nc2ncc(Cl)s2)cc1 [Compound 7]
3. CC(C)(C)c1ccc(CNS(=O)(=O)c2ccc(S(=O)(=O)Nc3nccs3)cc2)cc1 [Compound 11]
4. O=S(=O)(NCc1ccc(C(F)(F)F)cc1)c1ccc(S(=O)(=O)Nc2ncc(Cl)s2)cc1 [Compound 15]
5. C[C@@H](CNS(=O)(=O)c1ccc(S(=O)(=O)Nc2ncc(Cl)s2)cc1)Oc1ccc(Cl)cc1 [Compound 33]
6. O=S(=O)(NCCc1ccc(Cl)cc1)c1ccc(S(=O)(=O)Nc2nccs2)cc1 [Compound 27]

[out]
1: > 7.00; 2: > 7.00; 3: > 7.00; 4: > 7.00; 5: 6.30 to 7.00; 6: 6.30 to 7.00
